Documented yeast fitness across a set of variants
B1: tRNA (parent)
chain: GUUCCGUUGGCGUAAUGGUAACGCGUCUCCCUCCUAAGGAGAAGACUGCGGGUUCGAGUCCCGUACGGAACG

# Variants of: B1
# experimental_details: yeast fitness relative to wild type (ratio to wild type); higher = fitter; tRNA-Arg(CCU), competitive growth, 37 C, YPD
Fewer inactive variants are shown than the library holds.
The response must contain the number and no unit.

// known answers, use as guide
{"columns": ["seq", "test_value"],
 "data": [
  ["GGUCCGUUGGCGUAAUGGUAACGCGUCUCCCUCCUAACGAGAAGACUGCGGGUUCGAGUCCCGUACGGAACG [U2G G38C]", 0.606],
  ["GUUCCGUUGGCGUAAUGGUAACGCGUCUCCCUCCUAAGGAGAACACUGCCGGUGCGAGUCGCGUACGGAACG [G44C G50C U54G C61G]", 0.568],
  ["GUUCCGUUGGCGUAAUGGUAACGCGUCUCCCUCCUAAGGACAAGACUGCGGGUUCGAGACCCGUACGGAACG [G41C U59A]", 0.801],
  ["GUUCCGUUAGCGUAAUGGUAACGCGUGUCCGUCCUUAGGGGAAGACUACGGAUUCGAGUACCGUACGGAACG [G9A C27G C31G A36U A40G G48A G52A C60A]", 0.575],
  ["GUUCCGUUGGCGUAAUGGUAACGCGACUCCUUCCUAAGGAGAAGACUACGGGUUCGAGUCCCGUGCGGAACG [U26A C31U G48A A65G]", 0.683]
]}

Query block: Could you share which yeast fitness value was measured for GUUCCGUUGGCGUAAUGGUAACGCGUCUCCCUACUAAGGAGAAGACUGCGGGUUCGUGUCCCGUACGGAACG [C33A A57U] ?
Result block: 0.564

These measurements were taken from the RNAGym collection of RNA variant scans (doi:10.1126/science.aae0568).
